Molecular target: recombinant human liver GK (Homo sapiens)
Sequence (P35557 1-466 isoform P35557-2): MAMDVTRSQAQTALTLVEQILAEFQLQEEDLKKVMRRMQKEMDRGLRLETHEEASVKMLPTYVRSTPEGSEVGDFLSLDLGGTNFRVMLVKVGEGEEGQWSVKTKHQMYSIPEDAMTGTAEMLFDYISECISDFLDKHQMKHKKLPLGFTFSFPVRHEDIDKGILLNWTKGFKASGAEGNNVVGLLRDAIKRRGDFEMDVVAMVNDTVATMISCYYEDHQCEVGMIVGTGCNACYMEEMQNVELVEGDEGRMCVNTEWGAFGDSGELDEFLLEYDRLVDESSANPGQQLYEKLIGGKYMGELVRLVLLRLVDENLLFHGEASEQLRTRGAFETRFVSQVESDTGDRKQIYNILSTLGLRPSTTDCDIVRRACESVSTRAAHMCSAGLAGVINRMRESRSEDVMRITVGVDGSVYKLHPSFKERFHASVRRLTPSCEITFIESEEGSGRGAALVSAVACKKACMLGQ
Experiment: Glucokinase-activating effect (Thio-NADH coupled assay with G6PDH)
Details: 2.5 mM glucose, 30° C.
recorded.endpoint: pEC50
The read-out pEC50 is expressed as -log10 of concentration in moles per litre.

Asked: Entry "CCN1CC(Oc2ccc(Sc3ccc(Sc4nncn4C)nc3C(=O)Nc3nc(C)ns3)cc2)C1" has what pEC50?
Given back: 7.30

Asked: Field request: pEC50 | item: "Cc1nsc(NC(=O)c2nc(Sc3nncn3C)ccc2Sc2ccc(O[C@@H]3CCN(C(C)C)C3)cc2)n1"
Given back: 7.40

Asked: Dear colleague, I am looking for the recorded pEC50 of the following compound: "Cc1nsc(NC(=O)c2nc(Sc3nncn3C)ccc2Sc2ccc(OCCN3CCC[C@H]3C)cc2)n1"
Given back: 6.82

Asked: Reported pEC50, compound "Cc1nsc(NC(=O)c2nc(Sc3nncn3C)ccc2Sc2ccc(OC[C@@H]3CCCN3C)cc2)n1" : ____
Given back: 7.22

Asked: Requested field: pEC50. Item: "Cc1nsc(NC(=O)c2nc(Sc3nncn3C)ccc2Sc2ccc(OCCN(C)C)cc2)n1"
Given back: 7.05

Asked: Can you look up the measured pEC50 of "CCN(C)CCOc1ccc(Sc2ccc(Sc3nncn3C)nc2C(=O)Nc2nc(C)ns2)cc1" for me?
Given back: 7.22

Asked: May I ask what pEC50 has been recorded for "CCN(CC)CCOc1ccc(Sc2ccc(Sc3nncn3C)nc2C(=O)Nc2nc(C)ns2)cc1" ?
Given back: 7.40

Asked: What pEC50 value was documented for this compound, "Cc1nsc(NC(=O)c2nc(Sc3nncn3C)ccc2Sc2ccc(OCCN3CCCCC3)cc2)n1" ?
Given back: 7.15
